Reference source for all entries: ChEMBL document CHEMBL1201862

# Test system: RPMI-8226
# assaySummary: NCI tumour cell line growth inhibition, 48 h
Active and inactive are the calls of the source. Rule as the data show it: active = GI50 up to about 1.1 µM and inactive = higher.
Hi there, use one of these labels in your reply, thanks! true = active, false = inactive

Take a look at these entries with their results.
{"columns": ["compound", "assayTarget", "qualitativeLabel"],
 "data": [
  ["O=C(NCCCN(CCCCN(CCCNC(=O)C(F)(F)F)Cc1ccc2ccccc2c1)Cc1ccc2ccccc2c1)C(F)(F)F", "RPMI-8226", "false"],
  ["CC[C@@]1(O)C(=O)OCc2c1cc1n(c2=O)Cc2c-1nc1ccccc1c2/C=N/NC(=O)C[N+](C)(C)C", "RPMI-8226", "false"],
  ["O=P1(O)c2ccccc2CCc2ccccc21", "RPMI-8226", "false"]
]}

What call does the record list for `Nc1nc(N)c(CCCCc2ccc([N+](=O)[O-])cc2)c(N)n1` ? false

Another compound to check: `c1ccc2c(CNCCCCCCCCNCc3cccc4ccccc34)cccc2c1` false

Here is the next compound: `CC1(C)N=C(/C(Cl)=[N+](/[O-])C(=O)c2ccc(Cl)cc2)C(C)(C)N1O` false

Try this compound next: CC(c1ccccc1)N1CCN(C(C)c2ccccc2)CC1 (configuration not stated) false

Now try `CN(C)CCn1c(=O)c2ccc(NCCN3CCNCC3)c3c(=O)c4ccccc4n(c1=O)c23` . true

Also check `O=C(O)Cn1c(=O)[nH]c(=O)c2c1ncn2Cc1ccccc1` false

Can you check `CCOC(=O)c1nc2cc(C(F)(F)F)ccc2nc1Nc1ccc(C(=O)NC(C(=O)OCC)C(=O)OCC)cc1` next? false

Similarly, `COCCn1cnc2c(Cl)nc(Nc3ccccc3)nc21` ? false

Now consider `COC(=O)c1cc(C#N)[nH]c1-c1cccs1` . false
